System: BJ
method: Antiproliferative activity against human BJ cells after 3 days by MTS assay
condition_notes: 72 h
endpoint: IC50 (µM)

compound_smiles | endpoint | operator | measured_value
COc1ncnc2c1c1c(ccn1C)n2[C@@H]1O[C@H](CO)[C@@H](O)[C@H]1O | IC50 | = | 4.5
CSc1ncnc2c1c1ccn(C)c1n2[C@@H]1O[C@H](CO)[C@@H](O)[C@H]1O | IC50 | > | 50
COc1ncnc2c1c1ccn(C)c1n2[C@@H]1O[C@H](CO)[C@@H](O)[C@H]1O | IC50 | > | 50
Cn1ccc2c1c1c(Cl)ncnc1n2[C@@H]1O[C@H](CO)[C@@H](O)[C@H]1O | IC50 | = | 1.2
Cn1ccc2c1c1c(-c3cc4ccccc4o3)ncnc1n2[C@@H]1O[C@H](CO)[C@@H](O)[C@H]1O | IC50 | > | 50
Cc1ncnc2c1c1c(ccn1C)n2[C@@H]1O[C@H](CO)[C@@H](O)[C@H]1O | IC50 | = | 3.91
Cc1ncnc2c1c1occc1n2[C@@H]1O[C@H](CO)[C@@H](O)[C@H]1O | IC50 | = | 7.73
OC[C@H]1O[C@@H](n2c3ccoc3c3c(-c4cc5ccccc5o4)ncnc32)[C@H](O)[C@@H]1O | IC50 | > | 50
Nc1ncnc2c1c(-c1cccs1)cn2[C@@H]1O[C@H](CO)[C@@H](O)[C@H]1O | IC50 | > | 50

* * *

Tested on: HCT-116
method: Antiproliferative activity against human HCT116 cells after 3 days by MTS assay
Assay type: functional, cell-based
condition_notes: HCT-116, 72 h
Please assign n whenever IC50 is at or above 0.3 µM, and y whenever it is below.

compound_smiles | assigned_label
COc1ncnc2c1c1c(ccn1C)n2[C@@H]1O[C@H](CO)[C@@H](O)[C@H]1O | n
Cn1ccc2c3c(-c4ccco4)ncnc3n([C@@H]3O[C@H](CO)[C@@H](O)[C@H]3O)c21 | n
OC[C@H]1O[C@@H](n2c3ccoc3c3c(-c4ccco4)ncnc32)[C@H](O)[C@@H]1O | n
Cn1ccc2c1c1c(-c3ccoc3)ncnc1n2[C@@H]1O[C@H](CO)[C@@H](O)[C@H]1O | n
Cn1ccc2c3c(-c4cc5ccccc5o4)ncnc3n([C@@H]3O[C@H](CO)[C@@H](O)[C@H]3O)c21 | n
CN(C)c1ncnc2c1c1occc1n2[C@@H]1O[C@H](CO)[C@@H](O)[C@H]1O | n
Nc1ncnc2c1c(-c1cccs1)cn2[C@@H]1O[C@H](CO)[C@@H](O)[C@H]1O | y
Cc1ncnc2c1c1occc1n2[C@@H]1O[C@H](CO)[C@@H](O)[C@H]1O | n
CN(C)c1ncnc2c1c1ccn(C)c1n2[C@@H]1O[C@H](CO)[C@@H](O)[C@H]1O | n
CN(C)c1ncnc2c1c1c(ccn1C)n2[C@@H]1O[C@H](CO)[C@@H](O)[C@H]1O | n
CSc1ncnc2c1c1occc1n2[C@@H]1O[C@H](CO)[C@@H](O)[C@H]1O | y
Cn1ccc2c1c1c(-c3ccco3)ncnc1n2[C@@H]1O[C@H](CO)[C@@H](O)[C@H]1O | n

* * *

Recorded remaining at 0.25 h for the following compounds
method: Chemical stability of the compound assessed as compound remaining after 15 mins relative to control
Type: physicochemical
condition_notes: read-out: Stability

compound_smiles | remaining at 0.25 h
CSc1ncnc2c1c1c(ccn1C)n2[C@@H]1O[C@H](CO)[C@@H](O)[C@H]1O | 100%
CSc1ncnc2c1c1occc1n2[C@@H]1O[C@H](CO)[C@@H](O)[C@H]1O | 99%
Cc1ncnc2c1c1c(ccn1C)n2[C@@H]1O[C@H](CO)[C@@H](O)[C@H]1O | 98%
Cc1ncnc2c1c1occc1n2[C@@H]1O[C@H](CO)[C@@H](O)[C@H]1O | 99%
